Data credit: BigSolDB 2.1

Each entry below lists one item and its recorded solubility (mole fraction) value.
condition.description: in water, 303.15 K
Reply with the value as a number alone.

INSERT INTO assay_data (smiles_str, property, readout_value) VALUES
  ('O=C(O)CCP(=O)([O-])c1ccccc1.[Na+]', 'solubility (mole fraction)', 0.0214);

I have this compound here, O=C([O-])CCP(=O)([O-])c1ccccc1.[Na+].[Na+] , and I need its recorded solubility (mole fraction).
0.000908

###

Each entry below lists one item and its recorded solubility (mole fraction) value.
condition.description: in acetic acid, 343.15 K

I have this molecule here, O=C([O-])CCP(=O)([O-])c1ccccc1.[Na+].[Na+] , and I need its recorded solubility (mole fraction).
0.000742

I have this molecule here, O=C(O)CCP(=O)([O-])c1ccccc1.[Na+] , and I need its recorded solubility (mole fraction).
0.062

###

Each entry below lists one item and its recorded solubility (mole fraction) value.
condition.description: in water, 323.15 K

INSERT INTO measurements (smiles_str, property, readout_value) VALUES
  ('O=C(O)CCP(=O)([O-])c1ccccc1.[Na+]', 'solubility (mole fraction)', 0.0263);

Could you now consider this next compound?
I have this compound here, O=C([O-])CCP(=O)([O-])c1ccccc1.[Na+].[Na+] , and I need its recorded solubility (mole fraction).
0.000913

###

condition.description: in acetic acid, 308.15 K
property: solubility (mole fraction)

INSERT INTO assay_data (smiles_str, property, readout_value) VALUES
  ('O=C([O-])CCP(=O)([O-])c1ccccc1.[Na+].[Na+]', 'solubility (mole fraction)', 0.000581);

I have this compound here, O=C(O)CCP(=O)([O-])c1ccccc1.[Na+] , and I need its recorded solubility (mole fraction).
0.0264

###

Each entry below lists one item and its recorded solubility (mole fraction) value.
condition.description: in methanol, 318.15 K
Reply with the value as a number alone.

INSERT INTO measurements (smiles_str, readout_value) VALUES
  ('O=C([O-])CCP(=O)([O-])c1ccccc1.[Na+].[Na+]', '2.4e-05');

I have this molecule here, O=C(O)CCP(=O)([O-])c1ccccc1.[Na+] , and I need its recorded solubility (mole fraction).
0.009

###

condition.description: in ethyl acetate, 293.15 K
property: solubility (mole fraction)
Reply with the value as a number alone.

I have this compound here, O=C(O)CCP(=O)([O-])c1ccccc1.[Na+] , and I need its recorded solubility (mole fraction).
0.00039

###

condition.description: in ethyl acetate, 333.15 K
property: solubility (mole fraction)

I have this molecule here, O=C(O)CCP(=O)([O-])c1ccccc1.[Na+] , and I need its recorded solubility (mole fraction).
0.00384

###

condition.description: in water, 343.15 K
Each entry below lists one item and its recorded solubility (mole fraction) value.
Reply with the value as a number alone.

INSERT INTO results (smiles_str, readout_value) VALUES
  ('O=C([O-])CCP(=O)([O-])c1ccccc1.[Na+].[Na+]', 0.000918);

Could you now consider this next molecule?
I have this molecule here, O=C(O)CCP(=O)([O-])c1ccccc1.[Na+] , and I need its recorded solubility (mole fraction).
0.0316

###

Each entry below lists one item and its recorded solubility (mole fraction) value.
condition.description: in acetone, 303.15 K
Reply with the value as a number alone.

INSERT INTO results (smiles_str, property, readout_value) VALUES
  ('O=C(O)CCP(=O)([O-])c1ccccc1.[Na+]', 'solubility (mole fraction)', 0.00016);

Could you now consider this next compound?
I have this compound here, O=C([O-])CCP(=O)([O-])c1ccccc1.[Na+].[Na+] , and I need its recorded solubility (mole fraction).
4.13e-05
